Consider the following compounds and their measured PL readings.
# Species: Rattus norvegicus
# Assay details: Open TG-GATES - Regimen: Daily Repeat
# Format: toxicity, organism-based, Sprague-Dawley
# Design: regimen Daily Repeat, gender Male, age 6 weeks
# Particulars: in vivo, po, 300 mg/kg, 72 h, tissue Plasma, route gavage, dose level Middle, time 3 day

Compound | PL, mg/dL
O=C(O)c1cccnc1 [NIACIN] | 152.8
O=C(N[C@H](CO)[C@H](O)c1ccc([N+](=O)[O-])cc1)C(Cl)Cl [CHLORAMPHENICOL] | 150.4
CCN1CCCC1CNC(=O)c1cc(S(N)(=O)=O)ccc1OC (centres undefined) [SULPIRIDE] | 147.8
CC(C)(S)[C@@H](N)C(=O)O [PENICILLAMINE] | 159.2
